# Test system: MS2 coat protein
# assay_notes: apparent KD of MS2 coat protein; designed switch direction (-1 OFF switch, 1 ON switch): 1; higher = weaker reporter binding
# condition_context: input ligand: microRNA oligo, concentration not stated
readout_label: apparent KD of MS2 coat protein (nM)
Hi! Could you send only the number? It should be in nM, unit omitted.

| record_sequence | apparent KD of MS2 coat protein, nM |
| --- | --- |
| ACAUGAAAUUGAGGAUAUUUUGUACCUACAUGUGACAUGAGGAUCACCCAUGUGGUAAGUAUAAGAGAGAAGGCAAAGAUAUGU [Equivalence 6 - Jieux - Same State NG 2] (Eterna round: R96, puzzle: Same State NG 2) | 29.2 |
| GUGGUCAGACAUGAGGAUCACCCAUGUGGAAUAAAUAACGAACAGGAUAUGCAAUAUAGGAUAUAGUAGAAGGGUUGAUUGGUG (Eterna round: R96, puzzle: Same State NG 3) | 82.4 |
| AUGAAGAAUUAAGGAUAUUGAUUACAUAUGUUUAACAUGAGGAUCACCCAUGUGGGUUGCGGUAUCGAGAAGGUAAAUUACUAG [JL SSNG2 1.48] (Eterna round: R96, puzzle: Same State NG 2) | 99.6 |
| GCUGGAAACCACAUGAGGAUCACCCAUGUUCCGGAAACGGCGCAGGAUAUCUGUCCGAAAAGGUCAGAGAAGGGUGGAACCAGC [Fiskers NG3ss - 81] (Eterna round: R96, puzzle: Same State NG 3) | 136 |

**Q:** Give the value of apparent KD of MS2 coat protein reported for the following: CUUUUUAGUGCAGGAUAUGAUCAACAUGAGGAUCACCCAUGUGGCGUUGUGAGUAGGGAGAGUGAUCAGAAGGGCGUCUCCUCG [SS-NG2-LRO10] (Eterna round: R96, puzzle: Same State NG 2)
**A:** 55.7

**Q:** Give the value of apparent KD of MS2 coat protein reported for the following: GUACAUAUUAUAGGAUAUCACGUCGAAUAGACGUGAGAAGGAUAAUCCCACAUGAAUAUUAAUACAUGAGGAUCACCCAUGUAC [SSNG1/18-A1] (Eterna round: R96, puzzle: Same State NG 1)
**A:** 49.7

**Q:** Give the value of apparent KD of MS2 coat protein reported for the following: AUUAUUAAUGCAGGAUAUGAUUAACAUGAGGAUCACCCAUGUGGUGUUGUGAGUAAGGAGAGAGAUCAGAAGGGCAUUUUUUUU [JMF's solution 5] (Eterna round: R96, puzzle: Same State NG 2)
**A:** 263

**Q:** Give the value of apparent KD of MS2 coat protein reported for the following: GGUCGGACUCACAUGAGGAUCACCCAUGUUCCGGAAACGGGAUAGGAUAUCUGUCCGAAAAGGUCAGAGAAGGGUCUACCGACC [Fiskers NG3ss - 55] (Eterna round: R96, puzzle: Same State NG 3)
**A:** 236

**Q:** Give the value of apparent KD of MS2 coat protein reported for the following: UUGAUUAACGUAGGAUAUCGACCUACAUGAGGAUCACCCAUGUCUUUGUAUAGUUUUUUUUGUUACGAGAAGGACGUUAUGUAU [JR_SSNG2_Sub067] (Eterna round: R96, puzzle: Same State NG 2)
**A:** 100

**Q:** Give the value of apparent KD of MS2 coat protein reported for the following: GCUAGAAAUAAAGCCAACAUGAGGAUCACCCAUGUAUGUUGGCAGGAUAUCGUAUGCAAAGCAUACGAGAAGGGCUAAACUAGC [Mat - Same State NG 3 - JL Mod - D6] (Eterna round: R96, puzzle: Same State NG 3)
**A:** 149

**Q:** Give the value of apparent KD of MS2 coat protein reported for the following: UUACUCAUGUAAGGAUAUGCAGCCGAAACGGCUGCAGAAGGUACUAUAAUACAUGAGGAUCACCCAUGUCAAAAUAAUUUUUAC [Mat - Same State NG 1 - JL mod - D71] (Eterna round: R96, puzzle: Same State NG 1)
**A:** 21.7

**Q:** Give the value of apparent KD of MS2 coat protein reported for the following: AUUACUAACAUAGGAUAUCAUGCGAAAAUUGCGUGAGAAGGGUGGACACUGUCAUUCUCGGAGCACAUGAGGAUCACCCAUGUG [SameState NG1 #70] (Eterna round: R96, puzzle: Same State NG 1)
**A:** 42.4

**Q:** Give the value of apparent KD of MS2 coat protein reported for the following: GUACAGAUUAUAGGAUAUCACGUCGUUUAGACGUGAGAAGGAUAAUCACACAUGAAUAUUAAUACAUGAGGAUCACCCAUGUAC [SSNG1/17-A3] (Eterna round: R96, puzzle: Same State NG 1)
**A:** 17.5

**Q:** Give the value of apparent KD of MS2 coat protein reported for the following: UGUUGUAUUACAGGAUAUCUAUUAUAUUUAUUUAGAGAAGGGUAUUCACAUGAGGAUCACCCAUGUAUAUACGAGGAAGUUGUG [JMF's solution 15] (Eterna round: R96, puzzle: Same State NG 1)
**A:** 36.4

**Q:** Give the value of apparent KD of MS2 coat protein reported for the following: AUGCCAAAUGGAGGAUAUGGAGCCUUAUUGGCUCCAGAAGGUCAGACAUGAGGAUCACCCAUGUGGCAGUGGUCUAAUGACCAC [Eli NG1ss - 39] (Eterna round: R96, puzzle: Same State NG 1)
**A:** 392

**Q:** Give the value of apparent KD of MS2 coat protein reported for the following: AAAGGAUGAUGUUACAUGAGGAUCACCCAUGUUGUGAUAACUAAGGAUAUGUGUUAAACCAGUUAAUAGAAGGUAGGAUCAUAA [AK SSNG3-V2-5] (Eterna round: R96, puzzle: Same State NG 3)
**A:** 77.1

**Q:** Give the value of apparent KD of MS2 coat protein reported for the following: AGCCGAGACACAGGAUAUACAUGUAUACAUGAGGAUCACCCAUGUAGCAACACGUGGUAGUGAUUGUAGAAGGGUGCUCGGCGC [Omei SS(NG)2 Cv13] (Eterna round: R96, puzzle: Same State NG 2)
**A:** 32

**Q:** Give the value of apparent KD of MS2 coat protein reported for the following: GCUCGGAUGAUGGCCCACAUGAGGAUCACCCAUGUGCGUGGGCAGGAUAUCUAGAUUAAGGAUGUAGAGAAGGGUCUACCGAGC [SameState NG3 #32] (Eterna round: R96, puzzle: Same State NG 3)
**A:** 67.9

Ref: the supplement of paper PMC9170038
